Assay: recombinant barcode read abundance after kanamycin selection (control-corrected) (log10(CPM+1)); higher = more efficient recombination; sequences stand for … in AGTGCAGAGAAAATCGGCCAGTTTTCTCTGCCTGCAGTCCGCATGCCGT…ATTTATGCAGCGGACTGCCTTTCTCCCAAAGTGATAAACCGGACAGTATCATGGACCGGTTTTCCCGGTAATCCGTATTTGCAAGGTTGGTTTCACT; site = the 11-nt target
endpoint.name: recombinant barcode read abundance (log10)

sequence.chain: TGTATTCTGTGGGTTCTAACCTGTTGCCTAG [TGTATTCCTAG_LTGcore_TG_RTGcore_CT] (site TGTATTCCTAG) (LTG core: TG, RTG core: CT)
reported.result: 0.0339

sequence.chain: TAGAGGGCGTGGGTTCTAACCTGTTGCGGCG [TAGAGGGCTCC_LTGcore_CG_RTGcore_CG] (site TAGAGGGCTCC) (LTG core: CG, RTG core: CG)
reported.result: 0.0165

sequence.chain: TCTACCCCTTGGGTTCTAACCTGTTGCTGGT [TCTACCCCTCA_LTGcore_CT_RTGcore_AC] (site TCTACCCCTCA) (LTG core: CT, RTG core: AC)
reported.result: 0.0498

sequence.chain: GGCTCCCAGTGGGTTCTAACCTGTTGCGGCT [GGCTCCCCTCC_LTGcore_AG_RTGcore_AG] (site GGCTCCCCTCC) (LTG core: AG, RTG core: AG)
reported.result: 0.206

sequence.chain: GAGCCCAACTGGGTTCTAACCTGTTGCCTGT [GAGCCCACTAG_LTGcore_AC_RTGcore_AC] (site GAGCCCACTAG) (LTG core: AC, RTG core: AC)
reported.result: 0.199

sequence.chain: ATGCTTTCATGGGTTCTAACCTGTTGCCTTG [ATGCTTTCTAG_LTGcore_CA_RTGcore_CA] (site ATGCTTTCTAG) (LTG core: CA, RTG core: CA)
reported.result: 0.1

sequence.chain: TGATACCCTTGGGTTCTAACCTGTTGCGTCG [TGATACCCTAC_LTGcore_CT_RTGcore_CG] (site TGATACCCTAC) (LTG core: CT, RTG core: CG)
reported.result: 0.0319

sequence.chain: AAACAGTCATGGGTTCTAACCTGTTGCCTTG [AAACAGTCTAG_LTGcore_CA_RTGcore_CA] (site AAACAGTCTAG) (LTG core: CA, RTG core: CA)
reported.result: 0.25

sequence.chain: GAGCCCACCTGGGTTCTAACCTGTTGCCTGG [GAGCCCACTAG_LTGcore_CC_RTGcore_CC] (site GAGCCCACTAG) (LTG core: CC, RTG core: CC)
reported.result: 0.0451

sequence.chain: ACGGGACTCTGGGTTCTAACCTGTTGCAGGA [ACGGGACCTCT_LTGcore_TC_RTGcore_TC] (site ACGGGACCTCT) (LTG core: TC, RTG core: TC)
reported.result: 0

sequence.chain: TAAGAATTATGGGTTCTAACCTGTTGCCTTA [TAAGAATCTAG_LTGcore_TA_RTGcore_TA] (site TAAGAATCTAG) (LTG core: TA, RTG core: TA)
reported.result: 0.111

sequence.chain: GAGTCCACTTGGGTTCTAACCTGTTGCGTGA [GAGTCCACTAC_LTGcore_CT_RTGcore_TC] (site GAGTCCACTAC) (LTG core: CT, RTG core: TC)
reported.result: 0.116

sequence.chain: TGTATTCCTTGGGTTCTAACCTGTTGCCTGG [TGTATTCCTAG_LTGcore_CT_RTGcore_CC] (site TGTATTCCTAG) (LTG core: CT, RTG core: CC)
reported.result: 0.0432

sequence.chain: AGGCGGGCTTGGGTTCTAACCTGTTGCGGGT [AGGCGGGCTCC_LTGcore_CT_RTGcore_AC] (site AGGCGGGCTCC) (LTG core: CT, RTG core: AC)
reported.result: 0.945

sequence.chain: GTCGCCCTATGGGTTCTAACCTGTTGCTAAG [GTCGCCCCTTA_LTGcore_TA_RTGcore_CT] (site GTCGCCCCTTA) (LTG core: TA, RTG core: CT)
reported.result: 0.0747

sequence.chain: AGGAGGTACTGGGTTCTAACCTGTTGCCTGT [AGGAGGTCTAG_LTGcore_AC_RTGcore_AC] (site AGGAGGTCTAG) (LTG core: AC, RTG core: AC)
reported.result: 0.183

sequence.chain: TGATACCGTTGGGTTCTAACCTGTTGCGTAG [TGATACCCTAC_LTGcore_GT_RTGcore_CT] (site TGATACCCTAC) (LTG core: GT, RTG core: CT)
reported.result: 0.236

sequence.chain: AAACATGAATGGGTTCTAACCTGTTGCCTAG [AAACATGCTAG_LTGcore_AA_RTGcore_CT] (site AAACATGCTAG) (LTG core: AA, RTG core: CT)
reported.result: 0

* * *

Experiment: recombinant UMI read abundance after kanamycin selection (control-corrected) (log10(CPM+1)); higher = more efficient recombination; extreme values may be limits of the assay; sequences stand for … in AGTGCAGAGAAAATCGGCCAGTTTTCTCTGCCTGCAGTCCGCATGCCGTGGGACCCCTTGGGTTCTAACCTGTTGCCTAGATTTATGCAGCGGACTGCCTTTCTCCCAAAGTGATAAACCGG…AGGTTGGTTTCACT; site = the 11-nt donor

sequence.chain: CGCATTTCATGGACCGGTTTTCCCGGTAATCCGTATTTGCC (site CGCATTTCTGG)
recombinant UMI read abundance (log10): 0
//
sequence.chain: ATCTGTACATGGACCGGTTTTCCCGGTAATCCGTATTTGAC (site ATCTCTACTGT)
recombinant UMI read abundance (log10): 0
//
sequence.chain: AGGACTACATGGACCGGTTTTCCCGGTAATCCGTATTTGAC (site AGGACTGCTGT)
recombinant UMI read abundance (log10): 0.359
//
sequence.chain: TGCTAGCCATGGACCGGTTTTCCCGGTAATCCGTATTTGGT (site TGCTAGTCTAC)
recombinant UMI read abundance (log10): 0.00984
//
sequence.chain: CCTAATTCATGGACCGGTTTTCCCGGTAATCCGTATTTGGC (site CCTAATGCTGC)
recombinant UMI read abundance (log10): 0
//
sequence.chain: CGAACATCATGGACCGGTTTTCCCGGTAATCCGTATTTGCT (site CGTACATCTAG)
recombinant UMI read abundance (log10): 0
//
sequence.chain: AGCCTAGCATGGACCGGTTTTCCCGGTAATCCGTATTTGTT (site AGCCTACCTAA)
recombinant UMI read abundance (log10): 0.0078
//
sequence.chain: CATTCAACATGGACCGGTTTTCCCGGTAATCCGTATTTGAC (site CATTCAACTGT)
recombinant UMI read abundance (log10): 0.406
//
sequence.chain: CTGTCGGCATGGACCGGTTTTCCCGGTAATCCGTATTTGCC (site CTGTCGGCTGG)
recombinant UMI read abundance (log10): 0
//
sequence.chain: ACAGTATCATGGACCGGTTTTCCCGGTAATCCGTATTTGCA (site AGAGTACCTTG)
recombinant UMI read abundance (log10): 0
//
sequence.chain: TCTACCGCATGGACCGGTTTTCCCGGTAATCCGTATTTGCG (site TCAACCGCTCG)
recombinant UMI read abundance (log10): 0.00715
//
sequence.chain: ACACCAGCATGGACCGGTTTTCCCGGTAATCCGTATTTGAT (site ACACCAGCTAT)
recombinant UMI read abundance (log10): 2.01
//
sequence.chain: GATTTGGCATGGACCGGTTTTCCCGGTAATCCGTATTTGTC (site GATTTGGCTGA)
recombinant UMI read abundance (log10): 0
//
sequence.chain: TCCACCGCATGGACCGGTTTTCCCGGTAATCCGTATTTGCA (site TCCACCGCTTG)
recombinant UMI read abundance (log10): 0.167
//
sequence.chain: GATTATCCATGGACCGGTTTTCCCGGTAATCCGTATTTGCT (site GATTATCCTCG)
recombinant UMI read abundance (log10): 0
//
sequence.chain: TAAGTCACATGGACCGGTTTTCCCGGTAATCCGTATTTGGG (site TAAGTCACTCC)
recombinant UMI read abundance (log10): 0.00997
//
sequence.chain: TTTGGCGCATGGACCGGTTTTCCCGGTAATCCGTATTTGAG (site TTTGGCGCTCT)
recombinant UMI read abundance (log10): 0.115
//
sequence.chain: CTCCTACCATGGACCGGTTTTCCCGGTAATCCGTATTTGCT (site CTTCTACCTAG)
recombinant UMI read abundance (log10): 0
//
sequence.chain: AAATGCACATGGACCGGTTTTCCCGGTAATCCGTATTTGGG (site AAATGCACTCC)
recombinant UMI read abundance (log10): 0.0107
//
sequence.chain: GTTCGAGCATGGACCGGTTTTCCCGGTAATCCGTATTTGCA (site GTTGGAGCTTG)
recombinant UMI read abundance (log10): 0.345
//
sequence.chain: AAACTGTCATGGACCGGTTTTCCCGGTAATCCGTATTTGCC (site AAACTGTCTGG)
recombinant UMI read abundance (log10): 1.79
//
sequence.chain: TAGAGTACATGGACCGGTTTTCCCGGTAATCCGTATTTGCA (site TAGACTACTTG)
recombinant UMI read abundance (log10): 0.88
//
sequence.chain: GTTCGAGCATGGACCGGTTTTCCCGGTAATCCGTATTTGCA (site GTTCGAGCTGG)
recombinant UMI read abundance (log10): 0.789
